molecular target: PRC2-AEBP2 (PRC2.2, 5-mer) (Homo sapiens, UniProt Q15910-2;O75530;Q15022;Q09028;Q6ZN18 1-751;1-441;1-739;1-425;1-517); assay: EMSA
recorded-endpoint: binding result

Completed entries (count: 5):
{"binder": "24 bp LHX6 (dsDNA) DNA 1: ACGCGCGCCGGGAAATTGAAGCGG DNA 2: CCGCTTCAATTTCCCGGCGCGCGT", "measured-result": "no binding"}
{"binder": "36 bp LHX6 (dsDNA) DNA 1: TCCGCCCGCTCGACGCGCGCCGGGAAATTGAAGCGG DNA 2: CCGCTTCAATTTCCCGGCGCGCGTCGAGCGGGCGGA", "measured-result": "no binding"}
{"binder": "36 bp ATrich (dsDNA) DNA 1: TATATAAATTAATATATAATTATATTATATTAAAAT DNA 2: ATTTTAATATAATATAATTATATATTAATTTATATA", "measured-result": "no binding"}
{"binder": "48 bp LHX6 (dsDNA) DNA 1: GCGCTAGGAGCATCCGCCCGCTCGACGCGCGCCGGGAAATTGAAGCGG DNA 2: CCGCTTCAATTTCCCGGCGCGCGTCGAGCGGGCGGATGCTCCTAGCGC", "measured-result": "no binding"}
{"binder": "24 bp ATrich (dsDNA) DNA 1: TATATAATTATATTATATTAAAAT DNA 2: ATTTTAATATAATATAATTATATA", "measured-result": "no binding"}

# query: binding result of entry 48 bp ATrich (dsDNA) DNA 1: ATATTTTATATATATATAAATTAATATATAATTATATTATATTAAAAT DNA 2: ATTTTAATATAATATAATTATATATTAATTTATATATATATAAAATAT
no binding
